Ref: ChEMBL document CHEMBL4396948

experiment: Permeability from basolateral to apical side in human Caco2 cells; type: ADME, cell-based; details: Caco-2, read-out: permeability
Attribute measured: Papp B→A (×10⁻⁶ cm/s)
Kindly provide the numeric value in ×10⁻⁶ cm/s only, without the unit symbol.

Solved cases (2 shown):
>  <Structure>
COC(=O)Nc1ccc2c(c1)NC(=O)CC/C=C/C[C@H](N1CC[C@H](c3cccc(Cl)c3)CC1=O)c1nc-2c[nH]1

>  <Endpoint unit>
×10⁻⁶ cm/s

>  <Papp B→A>
30.9

$$$$
>  <Structure>
COC(=O)Nc1ccc2c(c1)NC(=O)CC/C=C/C[C@H](NC(=O)/C=C/c1cc(Cl)ccc1-n1cnnn1)c1nc-2c[nH]1

>  <Endpoint unit>
×10⁻⁶ cm/s

>  <Papp B→A>
5.8

$$$$

Shifting focus to the molecule that follows.
Determine its reported Papp B→A: "COC(=O)Nc1ccc2c(c1)NC(=O)CC/C=C/C[C@H](NC(=O)/C=C/c1cccc(Cl)c1)c1nc-2c[nH]1" 32.4
